- Measured On: Serine/threonine-protein kinase WNK1 (Homo sapiens)
- Assay Comment: Inhibition of TEV cleavage site-fused His6-tagged WNK1 (194 to 483 residues) (unknown origin) expressed in Rosetta (DE3) cells using GST-OSR1(314 to 344) peptide as substrate measured after 30 mins by [gamma-32P]-ATP based liquid scintillation counting analysis
- Format: biochemical
For each entry below, report its pIC50 value.
Give bare numbers, as −log10 of the molar value.

Solved entries:
| Smiles Structure | Measured On | Number |
| --- | --- | --- |
| O=[N+]([O-])c1cc(S(=O)(=O)C(Cl)(Cl)Br)ccc1Nc1ccccc1 | Serine/threonine-protein kinase WNK1 (Homo sapiens) | 5.14 |
| O=[N+]([O-])c1cc(S(=O)(=O)C(Cl)(Cl)Br)ccc1NC1CCCCC1 | Serine/threonine-protein kinase WNK1 (Homo sapiens) | 5.80 |
| O=[N+]([O-])c1cc(S(=O)(=O)C(Cl)(Cl)Br)ccc1NCc1ccco1 | Serine/threonine-protein kinase WNK1 (Homo sapiens) | 5.30 |
| O=[N+]([O-])c1cc(S(=O)(=O)C(Cl)(Cl)Br)ccc1NC1CCCC1 | Serine/threonine-protein kinase WNK1 (Homo sapiens) | 5.19 |

// moving on: another record for pIC50
Consider the compound O=[N+]([O-])c1cc(S(=O)(=O)C(Cl)(Cl)Br)ccc1NCCCc1ccccc1 and give its recorded pIC50.
5.22

* * *

- Measured On: Serine/threonine-protein kinase WNK1 (Homo sapiens)
- Assay Comment: Inhibition of TEV cleavage site-fused His6-tagged WNK1 (194 to 483 residues) (unknown origin) expressed in Rosetta (DE3) cells using GST-OSR1(314 to 344) peptide as substrate incubated for 2 hrs by kinase-glo luminescence assay
pIC50: −log10 of the molar value.
Hi there, I'd appreciate the recorded pIC50 for every entry that follows.

These recorded examples may help you get a feel for the data.
| Smiles Structure | Measured On | Result |
| --- | --- | --- |
| CN1CCN(c2ccc(S(=O)(=O)C(Cl)(Cl)Br)cc2[N+](=O)[O-])CC1 | Serine/threonine-protein kinase WNK1 (Homo sapiens) | < 3.00 |
| O=S(=O)(c1ccc(NC2CCCCC2)cc1)C(Cl)(Cl)Br | Serine/threonine-protein kinase WNK1 (Homo sapiens) | < 3.00 |
| O=[N+]([O-])c1ccccc1NC1CCCCC1 | Serine/threonine-protein kinase WNK1 (Homo sapiens) | < 3.00 |

For the 2 compounds below, give their pIC50 values.
1. O=[N+]([O-])c1cc(S(=O)(=O)C(Cl)(Cl)Br)ccc1NC1CCCCC1
2. O=[N+]([O-])c1cc(S(=O)(=O)C(Cl)Cl)ccc1NC1CCCCC1

1: 5.40; 2: < 3.00

* * *

- Measured On: Serine/threonine-protein kinase WNK1 (Homo sapiens, UniProt Q9H4A3)
- Sequence (Q9H4A3 whole entry, the tested form may be a part): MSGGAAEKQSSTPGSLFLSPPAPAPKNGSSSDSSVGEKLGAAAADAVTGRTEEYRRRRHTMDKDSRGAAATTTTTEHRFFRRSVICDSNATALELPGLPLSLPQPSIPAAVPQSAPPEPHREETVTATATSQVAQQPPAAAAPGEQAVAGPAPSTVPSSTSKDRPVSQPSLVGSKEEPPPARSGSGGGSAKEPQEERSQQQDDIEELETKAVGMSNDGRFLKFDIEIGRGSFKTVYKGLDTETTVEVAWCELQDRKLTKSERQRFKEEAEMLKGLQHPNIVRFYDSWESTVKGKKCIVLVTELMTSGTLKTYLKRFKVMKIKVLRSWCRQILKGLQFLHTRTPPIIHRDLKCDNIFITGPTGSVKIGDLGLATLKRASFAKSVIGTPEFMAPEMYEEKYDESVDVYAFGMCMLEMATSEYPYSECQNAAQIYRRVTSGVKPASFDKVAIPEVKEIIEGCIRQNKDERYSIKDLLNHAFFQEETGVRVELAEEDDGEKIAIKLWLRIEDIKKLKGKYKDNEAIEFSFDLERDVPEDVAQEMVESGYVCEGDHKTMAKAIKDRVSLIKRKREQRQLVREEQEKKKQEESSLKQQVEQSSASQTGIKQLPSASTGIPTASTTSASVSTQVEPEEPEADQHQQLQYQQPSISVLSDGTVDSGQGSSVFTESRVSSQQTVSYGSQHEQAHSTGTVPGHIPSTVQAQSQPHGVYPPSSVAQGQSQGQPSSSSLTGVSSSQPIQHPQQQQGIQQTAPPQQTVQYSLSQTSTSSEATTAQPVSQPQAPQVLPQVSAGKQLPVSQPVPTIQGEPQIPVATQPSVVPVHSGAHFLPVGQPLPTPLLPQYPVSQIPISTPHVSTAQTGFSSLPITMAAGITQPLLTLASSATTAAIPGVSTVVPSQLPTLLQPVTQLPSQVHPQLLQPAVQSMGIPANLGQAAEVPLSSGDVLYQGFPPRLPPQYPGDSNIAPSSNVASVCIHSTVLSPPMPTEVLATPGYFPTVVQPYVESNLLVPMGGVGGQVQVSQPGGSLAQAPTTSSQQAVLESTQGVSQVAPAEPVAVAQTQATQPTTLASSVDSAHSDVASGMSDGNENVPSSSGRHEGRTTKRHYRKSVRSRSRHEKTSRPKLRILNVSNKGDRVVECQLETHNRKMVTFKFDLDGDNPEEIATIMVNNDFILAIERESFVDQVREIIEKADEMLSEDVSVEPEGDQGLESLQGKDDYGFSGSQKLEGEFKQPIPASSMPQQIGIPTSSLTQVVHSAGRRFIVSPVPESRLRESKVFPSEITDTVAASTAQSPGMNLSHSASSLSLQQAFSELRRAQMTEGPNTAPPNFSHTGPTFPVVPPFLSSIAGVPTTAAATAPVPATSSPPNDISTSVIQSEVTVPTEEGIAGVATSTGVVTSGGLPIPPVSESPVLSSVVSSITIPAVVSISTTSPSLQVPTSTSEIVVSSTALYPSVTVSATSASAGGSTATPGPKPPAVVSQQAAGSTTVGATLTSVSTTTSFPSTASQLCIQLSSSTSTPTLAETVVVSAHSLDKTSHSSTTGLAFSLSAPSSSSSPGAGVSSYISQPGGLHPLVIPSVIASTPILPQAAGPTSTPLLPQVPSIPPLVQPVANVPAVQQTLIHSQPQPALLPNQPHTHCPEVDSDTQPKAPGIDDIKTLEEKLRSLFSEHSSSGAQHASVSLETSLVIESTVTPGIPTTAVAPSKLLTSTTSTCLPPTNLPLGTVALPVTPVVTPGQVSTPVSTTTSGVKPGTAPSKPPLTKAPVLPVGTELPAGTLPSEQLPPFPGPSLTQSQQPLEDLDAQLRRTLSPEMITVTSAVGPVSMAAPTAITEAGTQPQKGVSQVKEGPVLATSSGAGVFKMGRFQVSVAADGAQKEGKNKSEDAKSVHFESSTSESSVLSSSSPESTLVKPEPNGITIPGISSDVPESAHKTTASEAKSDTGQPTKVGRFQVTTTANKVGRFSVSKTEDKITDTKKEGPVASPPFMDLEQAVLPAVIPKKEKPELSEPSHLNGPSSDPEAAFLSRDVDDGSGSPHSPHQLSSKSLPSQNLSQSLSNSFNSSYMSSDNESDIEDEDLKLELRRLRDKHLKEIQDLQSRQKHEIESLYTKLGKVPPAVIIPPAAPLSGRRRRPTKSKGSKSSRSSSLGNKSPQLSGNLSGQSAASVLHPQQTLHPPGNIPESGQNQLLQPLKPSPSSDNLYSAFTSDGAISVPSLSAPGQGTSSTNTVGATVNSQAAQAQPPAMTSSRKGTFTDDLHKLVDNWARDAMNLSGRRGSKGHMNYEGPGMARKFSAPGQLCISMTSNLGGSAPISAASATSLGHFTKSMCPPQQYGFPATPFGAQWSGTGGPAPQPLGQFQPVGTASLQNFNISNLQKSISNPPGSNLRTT
- Assay Comment: Inhibition of TEV cleavage site-fused His6-tagged WNK1 (194 to 483 residues) (unknown origin) expressed in Rosetta (DE3) cells using GST-OSR1(314 to 344) peptide as substrate incubated for 2 hrs by kinase-glo luminescence assay
Kindly state pIC50 for each of the entries shown.
Answers are plain numbers, as −log10 of the molar value.

| Smiles Structure | pIC50 |
| --- | --- |
| O=[N+]([O-])c1cc(S(=O)(=O)C(Cl)(Cl)Br)ccc1NC1CCCC1 | 4.03 |

Please list pIC50 recorded for the molecule O=[N+]([O-])c1cc(S(=O)(=O)C(Cl)(Cl)Br)ccc1NCc1ccco1
4.82

* * *

- Measured On: Serine/threonine-protein kinase WNK1 (Homo sapiens)
- Assay Comment: Inhibition of WNK1 in human MDA-MB-231 cells assessed as reduction in OSR1 phosphorylation measured after 24 hrs by Western blot analysis
- Assay type: cell-based
Result Type: IC50 (µM)
One number for each entry, in µM.

Please report the measured IC50 for O=[N+]([O-])c1cc(S(=O)(=O)C(Cl)(Cl)Br)ccc1NC1CCCCC1
4.3

* * *

Please provide measured IC50 for the entries that follow.
- Measured On: Serine/threonine-protein kinase WNK1 (Homo sapiens, UniProt Q9H4A3)
- Assay Comment: Inhibition of TEV cleavage site-fused His6-tagged WNK1 (194 to 483 residues) (unknown origin) expressed in Rosetta (DE3) cells using GST-OSR1(314 to 344) peptide as substrate incubated for 2 hrs by kinase-glo luminescence assay
Numbers only, in µM.

Batch: IC50 for all items listed.
1. O=[N+]([O-])c1cc(S(=O)(=O)C(Cl)(Cl)Br)ccc1Nc1ccccc1
2. O=[N+]([O-])c1cc(S(=O)(=O)C(Cl)(Cl)Br)ccc1NCCCc1ccccc1

[76, 79]

* * *

- Measured On: Serine/threonine-protein kinase WNK1 (Homo sapiens, UniProt Q9H4A3)
- Assay Comment: Inhibition of TEV cleavage site-fused His6-tagged WNK1 (194 to 483 residues) (unknown origin) expressed in Rosetta (DE3) cells using GST-OSR1(314 to 344) peptide as substrate incubated for 2 hrs by kinase-glo luminescence assay
Result Type: IC50

| Smiles Structure | Result |
| --- | --- |
| O=[N+]([O-])c1cc(S(=O)(=O)C(F)(F)F)ccc1NC1CCCCC1 | > 1000 µM |
| O=[N+]([O-])c1cc(S(=O)(=O)C(Cl)(Cl)Cl)ccc1NC1CCCCC1 | > 1000 µM |

In the following, a different compound is considered.
Give a short answer stating reported IC50 for CS(=O)(=O)c1ccc(NC2CCCCC2)c([N+](=O)[O-])c1 .
> 1000 µM
